Hello, the source for this data is the Kinase Knowledgebase extract (Sharma et al. 2016), in case you need it.

Biological target: EGFR (murine) (UniProt P00533)
Sequence (P00533 whole entry, looked up): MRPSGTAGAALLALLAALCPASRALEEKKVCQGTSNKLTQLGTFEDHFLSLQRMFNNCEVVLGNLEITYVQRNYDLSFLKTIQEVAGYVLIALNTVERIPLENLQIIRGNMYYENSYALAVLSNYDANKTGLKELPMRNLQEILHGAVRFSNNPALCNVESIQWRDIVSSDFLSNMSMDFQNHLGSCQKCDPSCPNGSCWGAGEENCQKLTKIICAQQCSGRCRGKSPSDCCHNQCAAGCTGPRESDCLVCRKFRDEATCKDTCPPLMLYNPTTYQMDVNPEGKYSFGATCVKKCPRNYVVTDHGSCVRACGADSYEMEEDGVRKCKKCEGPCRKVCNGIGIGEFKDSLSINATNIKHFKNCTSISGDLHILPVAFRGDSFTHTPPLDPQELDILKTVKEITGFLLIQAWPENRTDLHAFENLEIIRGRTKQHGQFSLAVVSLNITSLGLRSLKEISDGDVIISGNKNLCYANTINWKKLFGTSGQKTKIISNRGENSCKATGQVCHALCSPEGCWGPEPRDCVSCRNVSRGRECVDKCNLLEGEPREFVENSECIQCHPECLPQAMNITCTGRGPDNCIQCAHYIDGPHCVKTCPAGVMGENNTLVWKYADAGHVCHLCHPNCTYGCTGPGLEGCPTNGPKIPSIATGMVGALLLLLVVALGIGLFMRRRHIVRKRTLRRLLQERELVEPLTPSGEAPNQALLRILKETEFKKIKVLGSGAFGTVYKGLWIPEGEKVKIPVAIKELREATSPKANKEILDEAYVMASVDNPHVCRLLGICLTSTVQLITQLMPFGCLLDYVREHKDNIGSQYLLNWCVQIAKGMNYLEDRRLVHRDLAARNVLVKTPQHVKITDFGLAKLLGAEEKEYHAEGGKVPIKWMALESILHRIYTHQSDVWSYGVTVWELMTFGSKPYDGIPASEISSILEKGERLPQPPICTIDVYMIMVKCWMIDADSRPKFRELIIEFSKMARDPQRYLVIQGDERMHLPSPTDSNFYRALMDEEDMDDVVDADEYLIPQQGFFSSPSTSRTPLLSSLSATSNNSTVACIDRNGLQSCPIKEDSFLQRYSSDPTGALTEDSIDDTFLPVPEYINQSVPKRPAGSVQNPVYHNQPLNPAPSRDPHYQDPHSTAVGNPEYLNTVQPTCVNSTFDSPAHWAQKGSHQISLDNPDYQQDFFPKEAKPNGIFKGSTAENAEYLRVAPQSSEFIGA
Conditions: nih3t3
The entries below come with measured IC50 values attached.

Cc1ccc(O)c(/C=C2\C(=O)Nc3cccc(CCO)c32)n1 :: > 50 µM

Query: # IC50 lookup, item Cc1[nH]c(/C=C2\C(=O)Nc3cccc(CCOc4ccc(C(C)C)cc4)c32)c(C)c1CCC(=O)O
Reply: > 50 µM

Query: # IC50 lookup, item COc1cccc(-c2ccc3c(c2)NC(=O)C3Cc2ccccc2O)c1 (stereo unspecified)
Reply: > 50 µM

Query: # IC50 lookup, item Cc1[nH]c(/C=C2\C(=O)Nc3cccc(CCO)c32)c(C)c1CCCN(C)C
Reply: 25.3 µM
